system: EPO-induced JAK2 signal pathway; test: EPO-induced proliferation of UT-7 cells (JAK2 signal); type: cell-based, human; conditions: Homo sapiens, UT7; UT-7 cell proliferation, EPO 10 ng/mL, 72 hours; read-out: Inhibition activity IC50 on EPO-induced JAK2 signal pathway
pIC50: −log10 of the molar value.
test.readout: pIC50

The following compounds have reported results that may help.
1) CCONC(=O)c1cnc(Nc2ncc(F)cc2F)cc1Nc1cccc(-c2ncccn2)c1OC : < 5.00
2) CCONC(=O)c1cnc(Nc2ccnc(OC)n2)cc1Nc1cc(F)c(C2CC2)cc1N(C)S(C)(=O)=O : < 5.00
3) CCONC(=O)c1cnc(Nc2ccnc(C)n2)cc1Nc1cc(F)c(C2CC2)cc1N(C)S(C)(=O)=O : < 5.00
4) CONC(=O)c1cnc(Nc2ccc(OC)cn2)cc1Nc1ccccc1N(C)S(C)(=O)=O : < 5.00
5) CCONC(=O)c1cnc(Nc2cc(C)nc(C)n2)cc1Nc1ccc(Cl)cc1N(C)S(=O)(=O)C1CC1 : < 5.00
6) CONC(=O)c1cnc(NC(=O)C2CC2)cc1Nc1ccc(OC)cc1N(C)S(C)(=O)=O : < 5.00

Record pIC50 for all entries; do not skip any.
1. CONC(=O)c1cnc(NC(=O)C2CC2)cc1Nc1ccc(C)nc1N(C)S(C)(=O)=O
2. CCONC(=O)c1cnc(NC(=O)C2CC2)cc1Nc1cccc(-c2ncc(Cl)cn2)c1OC

Completion:
["< 5.00", "< 5.00"]

====

assay: In-vivo pharmacokinetic test in mice; settings: mouse, po; BALB/c female mice, gavage 10 mg/kg, plasma
The threshold is inclusive: AUC of exactly 30 µM·h counts as MET; values below receive NOT MET.

Previously resolved entries follow.
1) CCONC(=O)c1cnc(Nc2cc(C)nc(C)n2)cc1Nc1cccc(-c2ncc(C)cn2)c1OC : MET
2) CCONC(=O)c1cnc(Nc2cc(C)nc(C)n2)cc1Nc1cccc(-c2ncccn2)c1OC : NOT MET
3) CCONC(=O)c1cnc(Nc2cc(C)nc(C)n2)cc1Nc1cccc(-c2cnc(C)cn2)c1OC : MET
4) CCONC(=O)c1cnc(Nc2cc(C)nc(C)n2)cc1Nc1cc(F)cc(-c2cnc(C)cn2)c1OC : MET
5) CCONC(=O)c1cnc(Nc2cc(C)nc(C)n2)cc1Nc1cc(F)cc(-c2ncccn2)c1OC : NOT MET

Prompt: Is the recorded value of AUC equal to or greater than 30 µM·h for this molecule? CCONC(=O)c1cnc(Nc2cc(C)nc(C)n2)cc1Nc1cccc(-c2ncc(F)cn2)c1OC
Completion: MET

Prompt: Is the recorded value of AUC equal to or greater than 30 µM·h for this molecule? CCONC(=O)c1cnc(NC(=O)C2CC2)cc1Nc1cccc(-c2ncc(Cl)cn2)c1OC
Completion: NOT MET

====

I'd appreciate it if you could supply pIC50 values for the items below.
system: IL-10-induced JAK1/TYK2 signal pathway; assay: IL-10-induced JAK1/TYK2 signal pathway STAT3-Luc reporter gene assay in U2OS cells; type: cell-based, human; conditions: Homo sapiens; U2OS cells, STAT3-Luc reporter, IL-10 10 ng/mL; read-out: Half inhibition dose (IC50) on IL-10-induced JAK1/TYK2 signal pathway
One number for each entry, as −log10 of the molar value.

The following molecules have reported results that may help.
1) CCONC(=O)c1cnc(Nc2cc(C)nc(C)n2)cc1Nc1ccc(C(C)C)cc1N(C)S(C)(=O)=O : 9.27
2) CONC(=O)c1cnc(NC(=O)C2CC2)cc1Nc1cccc(-n2cccn2)c1OC : 8.77
3) CCONC(=O)c1cnc(Nc2cc(C)nc(C)n2)cc1Nc1ccc(CC)cc1N(C)S(C)(=O)=O : 8.95
4) CONC(=O)c1cnc(NC(=O)C2CC2)cc1Nc1ccc(C(F)(F)F)cc1N(C)S(C)(=O)=O : 8.93
5) CCONC(=O)c1cnc(Nc2cc(C)nc(C)n2)cc1Nc1cccc(-c2cnccn2)c1OC : 8.98

Next, consider the following molecule.
Prompt: Reported pIC50 for CONC(=O)c1cnc(NC(=O)C2CC2)cc1Nc1ccc(C)cc1N(C)S(C)(=O)=O : what is it?
Completion: 8.82
